tgt: recombinant HuBraf V600E (Homo sapiens, UniProt P15056, V600E)
Sequence (P15056 whole entry V600E): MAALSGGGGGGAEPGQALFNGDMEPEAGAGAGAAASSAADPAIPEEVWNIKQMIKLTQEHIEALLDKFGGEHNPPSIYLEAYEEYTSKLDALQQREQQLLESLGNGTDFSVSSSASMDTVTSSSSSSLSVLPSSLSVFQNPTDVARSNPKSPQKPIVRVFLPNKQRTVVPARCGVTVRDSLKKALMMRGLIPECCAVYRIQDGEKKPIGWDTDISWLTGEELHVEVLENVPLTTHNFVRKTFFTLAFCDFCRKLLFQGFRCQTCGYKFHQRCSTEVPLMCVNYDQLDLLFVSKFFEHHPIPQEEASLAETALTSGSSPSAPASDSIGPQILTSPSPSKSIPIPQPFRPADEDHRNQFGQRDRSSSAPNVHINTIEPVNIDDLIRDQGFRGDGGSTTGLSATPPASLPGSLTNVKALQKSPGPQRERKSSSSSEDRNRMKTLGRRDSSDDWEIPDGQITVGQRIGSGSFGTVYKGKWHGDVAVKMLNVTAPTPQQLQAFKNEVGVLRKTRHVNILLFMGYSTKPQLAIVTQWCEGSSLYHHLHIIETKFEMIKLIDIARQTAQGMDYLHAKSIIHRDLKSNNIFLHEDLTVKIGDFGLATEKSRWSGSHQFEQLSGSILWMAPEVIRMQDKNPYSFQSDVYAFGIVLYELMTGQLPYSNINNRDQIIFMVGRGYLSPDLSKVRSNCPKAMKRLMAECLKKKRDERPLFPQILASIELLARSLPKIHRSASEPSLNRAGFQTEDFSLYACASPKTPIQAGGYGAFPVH
testName: B-raf Homogenous Time Resolved Fluorescent (HTRF) kinase assay
Type: biochemical
appliedConditions: Table II; human mutant B-raf V600E, substrate MEK1, 10 uM ATP; read-out: HTRF Enzyme assay Data IC50
pIC50: −log10 of the molar value.
valueKind: pIC50

Before answering, review these 6 worked examples.
In [3]: df
Out[3]:
                                   molecule                                       tgt  result
0  Cc1ccc2c(Nc3ccc(Cl)cc3)nccc2c1Nc1ncncc1-c1ncnc2[nH]cnc12 [Example 69]  recombinant HuBraf V600E (Homo sapiens, UniProt P15056, V600E)    8.70
1  Cc1ccc2c(Nc3cccc(C(F)(F)F)c3)ncnc2c1Nc1ncccc1-c1ncnc2[nH]cnc12 [Example 73]  recombinant HuBraf V600E (Homo sapiens, UniProt P15056, V600E)    7.59
2  Cc1ccc2c(Nc3ccc4c(c3)OC(F)(F)O4)nccc2c1Nc1ncccc1-c1ncnc2[nH]ncc12 [Example 72]  recombinant HuBraf V600E (Homo sapiens, UniProt P15056, V600E)    7.70
3  Cc1ccc2c(Nc3ccc4c(c3)OC(F)(F)O4)ncnc2c1Nc1ncccc1-c1ncnc2[nH]cnc12 [Example 74]  recombinant HuBraf V600E (Homo sapiens, UniProt P15056, V600E)    8.10
4  Cc1ccc2c(Nc3ccc(Cl)cc3)ncnc2c1Nc1ncccc1-c1ncnc2[nH]cnc12 [Example 77]  recombinant HuBraf V600E (Homo sapiens, UniProt P15056, V600E)    8.30
5  Cc1ccc2c(Nc3ccc(C#N)cc3)ncnc2c1Nc1ncccc1-c1ncnc2[nH]ncc12 [Example 70]  recombinant HuBraf V600E (Homo sapiens, UniProt P15056, V600E)    8.30

(a) C#Cc1cccc(Nc2ncnc3c(Nc4ncccc4-c4ncnc5[nH]cnc45)c(C)ccc23)c1 [Example 75]
(b) Cc1ccc2c(Nc3ccc(OC(F)F)cc3)ncnc2c1Nc1ncccc1-c1ncnc2[nH]cnc12 [Example 76]
(c) Cc1ccc2c(N[C@H](C)c3ccc(Cl)cc3)nccc2c1Nc1ncccc1-c1ncnc2[nH]cnc12 [Example 78]
Ask | Put the items in order so that reported pIC50 rises from first to last. Order the labels as requested and list them.
Reply | c, b, a
